Reported GI50 is given for each of the following molecules.
System: HOP-62 NSCLC
Test: NCI tumour cell line growth inhibition, 48 h

molecule	GI50
CCOC(=O)c1ccc2c(c1)[n+](=O)c(C(=O)c1ccc3ccccc3c1)c(C(F)(F)F)n2[O-]	1.66 µM
COc1cc(-c2cc(/C=C/C(=O)c3ccc4c(c3)OCO4)[nH]n2)cc(OC)c1OC	2.18 µM
C=C1C(=O)O[C@H]2[C@H]1CC/C(C=Nc1ccc(C(F)(F)F)cc1N)=C\CC[C@@]1(C)O[C@@H]21	12.8 µM
COc1ccc(-c2cc(-c3ccc(O)cc3)nc3nc(=S)[nH]c(N)c23)cc1	20.7 µM
COc1ccc(/C=C2\N=C(c3ccccc3)N(c3cc(C(F)(F)F)ccc3Cl)C2=O)cc1OC	21.1 µM
CCCN(CCC)c1ccc(C=O)cc1	> 88 µM
O=C(CCc1nnc(-c2c(Cl)cccc2Cl)o1)c1nc2ccccc2[nH]1	7.67 µM
C=C1C(=O)O[C@H]2[C@H]1CC/C(COC(=O)/C=C\C(=O)NCc1ccc(Cn3c(=O)sn(-c4ccc(OC)cc4)c3=O)cc1)=C\CC[C@@]1(C)O[C@@H]21	2.76 µM
O=C(c1ccccc1)c1ccc(Cl)c([N+](=O)[O-])c1	13.8 µM
CN(CCCCCl)P(=O)(OCc1ccc([N+](=O)[O-])o1)C(F)(F)c1ccc(CC(=O)N[C@@H](CC(=O)O)C(=O)N[C@@H](Cc2ccc(C(F)(F)P(=O)(OCc3ccc([N+](=O)[O-])o3)N(C)CCCCCl)cc2)C(N)=O)cc1 (stereo not given in full)	> 100 µM

---

Test system: TK-10 renal
Experiment: NCI tumour cell line growth inhibition, 48 h
attribute_measured: TGI

compound	tested_system	value_measured
O=C(O)CN1CCNCCN(CC(=O)O)CCNCC1	TK-10 renal	> 100 µM
O=C1C(c2ccc([N+](=O)[O-])cc2)=[N+]([O-])c2ccccc21	TK-10 renal	91.9 µM
c1ccc(-c2nc3sccn3n2)cc1	TK-10 renal	> 100 µM
O=C1Nc2cc(Cl)ccc2Oc2cc(Oc3ccccc3)ccc21	TK-10 renal	47.3 µM
Cc1nc2c(O)cccc2c(=O)[nH]1	TK-10 renal	> 1000 µM
C=C[C@@]1(C)CC2CC[C@]3(C)C(C)=CC(=O)CC3[C@]2(C)CC1O (stereo partly drawn)	TK-10 renal	> 100 µM
Cn1cc(C2=C(c3c4n(c5ccccc35)CC(CN)C4)C(=O)NC2=O)c2ccccc21 (stereo not drawn)	TK-10 renal	8.07 µM
CC1=NN(C(=O)CC(=O)Nc2ccccc2C)C(=O)C1N=Nc1ccc(S(=O)(=O)c2ccc(N=NC3C(=O)N(C(=O)CC(=O)Nc4ccccc4C)N=C3C)cc2)cc1 (stereo not drawn)	TK-10 renal	> 100 µM

---

Measured GI50 accompanies every entry in the list below.
Test system: SN12C renal
Assay: NCI tumour cell line growth inhibition, 48 h
attribute_measured: GI50

>>> print(df.to_string())
                                    molecule  tested_system  value_measured
 0  CC(C)c1ccc2c(N=Nc3ccc(S(N)(=O)=O)cc3)c(O)[nH]c2c1    SN12C renal       > 14.8 µM
 1  COc1ccc(-c2cn(-c3ccc(Cl)cc3)c(=S)[nH]2)cc1OC    SN12C renal         7.52 µM
 2               O=C(/C=C/c1ccccn1)c1ccccc1O    SN12C renal          2.8 µM
 3  CCOC(=O)c1c[nH]c2c(OCc3ccccc3)c3ccccc3c(O)c2c1=O    SN12C renal         22.2 µM
 4          C(=N/Nc1ncnc2nc[nH]c12)/c1ccccn1    SN12C renal         0.84 µM
 5  CCOC(=O)C1=C(N)Oc2c(sc3c(C)cccc23)C1c1ccc(Cl)cc1 (stereo unspecified)    SN12C renal         3.97 µM
 6  CCc1ccc(CCC(=O)Nc2ncc(Cc3cc(Cl)ccc3Cl)s2)o1    SN12C renal         1.93 µM
 7  COc1ccc(/C=C2\N=C(c3ccccc3)N(c3cc(C(F)(F)F)ccc3Cl)C2=O)cc1OC    SN12C renal         65.7 µM
 8  CN(C)CCCNC(=O)c1cc(NC(=O)CCNC(=O)c2ccc3c(c2)C(=O)c2ccccc2C3=O)cn1C    SN12C renal        > 100 µM
 9  COc1cc(-c2cc(/C=C/C(=O)c3ccc4c(c3)OCO4)[nH]n2)cc(OC)c1OC    SN12C renal         3.94 µM
10                    CCCN(CCC)c1ccc(C=O)cc1    SN12C renal       > 96.2 µM
